target: T1, SARS-CoV-2 NTD (Table A) (SARS-CoV-2, UniProt P0DTC2 14-305); assay: ELISA, purified IgG
T1 construct: domain: NTD
ELISA OD 450 nm by entry:
Return type: number; implicit unit OD 450 nm.

Examples with answers:
>  <binder>
COV2-2391 (antibody, V domains shown) VH: QVQLVQSGAEVKKPGASVKVSCKASGYTFGSFDINWVRQATGQGLEWMGRMNSNSGNTAYAQKFQGRVTMTRDTSTNTAYMELSSLRSEDTAMYYCARMRSGWPTHGRPDDFWGRGTLVTVSS VL: QSVLTQAPSASGTPGQRVTISCSGSNSNIGSYTINWYQQLPGTAPKLLIYGNDQRTSGVPDRFSGSKFGTSASLAISGLQSEDENNYYCAVWDDSLNGLVFGGGTKLTVL

>  <ELISA OD 450 nm (OD 450 nm)>
0.1

$$$$
>  <binder>
COV2-2096 (antibody, V domains shown) VH: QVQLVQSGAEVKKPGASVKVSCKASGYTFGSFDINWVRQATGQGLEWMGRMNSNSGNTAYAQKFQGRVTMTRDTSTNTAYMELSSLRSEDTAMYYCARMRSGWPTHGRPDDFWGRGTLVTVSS VL: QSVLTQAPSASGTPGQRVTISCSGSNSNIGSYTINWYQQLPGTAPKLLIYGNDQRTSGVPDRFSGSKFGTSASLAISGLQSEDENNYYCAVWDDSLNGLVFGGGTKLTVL

>  <ELISA OD 450 nm (OD 450 nm)>
0.12

$$$$

**Query** Requested read-out: ELISA OD 450 nm. Entry: COV2-2514 (antibody, V domains shown) VH: EVQLVESGGGVVRPGGSLRLSCAASGFIFDDYDMTWVRQAPGKGLEWVSGINWNGGSTGYADSVKGRFTISRDNAKNSLYLQMNSLRAEDTALYHCAVIMSPIPRYSGYDWAGDAFDIWGQGTMVTVSS VL: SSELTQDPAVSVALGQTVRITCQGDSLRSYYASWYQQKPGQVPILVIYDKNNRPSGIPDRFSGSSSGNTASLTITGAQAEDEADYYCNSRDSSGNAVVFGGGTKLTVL
**Result** 0.09
